# Tested on: NCI-H322M lung
# EXPERIMENT: NCI-60 one-dose screen, 48 h
# TEST PARAMETERS: 10 µM unless noted
The panel holds about 83,000 compounds, 20% with a hit somewhere; the sample as a whole holds those more often. Active and inactive are the calls of the source. How the source made its calls: active means growth percent below 10; inactive means the rest.
Outcomes: active, inactive

>  <MOLECULE>
NC1=Nc2cc(OCCCCN3Cc4ccccc4C3)c(OCC3CC3)cc2C12CCCC2

>  <TESTED ON>
NCI-H322M lung

>  <CAT>
inactive

$$$$
>  <MOLECULE>
Cc1ccc(/C=C/C(=O)c2ccc(-n3cc(CN4CCN(c5cc6c(cc5F)c(=O)c(C(=O)O)cn6C5CC5)CC4)nn3)cc2)cc1

>  <TESTED ON>
NCI-H322M lung

>  <CAT>
inactive

$$$$
>  <MOLECULE>
O=C(Cc1ccccc1)Nc1cccc(N=Cc2ccccc2O)c1

>  <TESTED ON>
NCI-H322M lung

>  <CAT>
inactive

$$$$
>  <MOLECULE>
O=S1(=O)C=C(c2ccccc2)C(c2ccccc2)=C1

>  <TESTED ON>
NCI-H322M lung

>  <CAT>
inactive

$$$$
>  <MOLECULE>
O=C(CSc1nnc(-c2cc(-c3ccccc3)nc3ccccc23)n1-c1ccccc1)Nc1ccc(C(=O)/C=C/c2ccc(Cl)cc2)cc1

>  <TESTED ON>
NCI-H322M lung

>  <CAT>
inactive

$$$$
>  <MOLECULE>
COc1ccc(/C=C(/C(=O)n2cnnn2)c2cc(OC)c(OC)c(OC)c2)cc1

>  <TESTED ON>
NCI-H322M lung

>  <CAT>
inactive

$$$$
>  <MOLECULE>
CCN1CCN(c2cc(C)nc(N(CCNc3ccnc4cc(Cl)ccc34)Cc3ccc4c(c3)OCO4)n2)CC1

>  <TESTED ON>
NCI-H322M lung

>  <CAT>
inactive

$$$$
>  <MOLECULE>
Cc1cccc(-c2nc(Nc3ccc4ncsc4c3)c3ccccc3n2)n1

>  <TESTED ON>
NCI-H322M lung

>  <CAT>
inactive

$$$$
>  <MOLECULE>
COc1ccc2c(c1)c(/C(O)=C1\COC(=O)C1=O)cn2Cc1ccc(F)cc1

>  <TESTED ON>
NCI-H322M lung

>  <CAT>
inactive

$$$$
>  <MOLECULE>
CCN1CCN(C(=O)[C@]23CC[C@@H](C)[C@H](C)[C@@H]2C2=CC[C@@H]4[C@@]5(C)C/C(=C/c6cccnc6)C(=O)C(C)(C)[C@@H]5CC[C@@]4(C)[C@]2(C)CC3)CC1

>  <TESTED ON>
NCI-H322M lung

>  <CAT>
inactive

$$$$
>  <MOLECULE>
C=C1CC[C@@H]2[C@](C)(COC(C)=O)[C@H](OC(C)=O)CC[C@@]2(C)[C@@H]1CC(Nc1ccc(S(=O)(=O)NC(C)=O)cc1)C1=CCOC1=O (stereo partly drawn)

>  <TESTED ON>
NCI-H322M lung

>  <CAT>
inactive

$$$$
>  <MOLECULE>
COc1ccc(Oc2nc(Nc3ccc(N4CCOCC4)cc3)ncc2NC(=O)Nc2cc(OC)cc(OC)c2)cc1

>  <TESTED ON>
NCI-H322M lung

>  <CAT>
inactive

$$$$
>  <MOLECULE>
CN(C)CCN1C(=O)c2cccc3c(/C=C/CN4C(=O)c5cccc6cccc(c56)C4=O)ccc(c23)C1=O

>  <TESTED ON>
NCI-H322M lung

>  <CAT>
inactive

$$$$
>  <MOLECULE>
COc1ccc(C(=O)c2cc3c(N)c(C(=O)Nc4ccccc4)sc3nc2C)cc1

>  <TESTED ON>
NCI-H322M lung

>  <CAT>
inactive

$$$$
>  <MOLECULE>
Cc1ccc(C)c(/C=C2\CN(C(=O)OC(C)(C)C)C/C(=C\c3cc(C)ccc3C)C2=O)c1

>  <TESTED ON>
NCI-H322M lung

>  <CAT>
inactive

$$$$
>  <MOLECULE>
COc1cc(/C=C2\CN(S(=O)(=O)c3ccccc3)C/C(=C\c3cc(CN4CCCCC4)c(O)c(OC)c3)C2=O)cc(CN2CCCCC2)c1O

>  <TESTED ON>
NCI-H322M lung

>  <CAT>
active

$$$$
>  <MOLECULE>
C=C1C(=O)O[C@H]2[C@H]1CC/C(COC(=O)c1ccc(C(=O)O)s1)=C\CC[C@@]1(C)O[C@@H]21

>  <TESTED ON>
NCI-H322M lung

>  <CAT>
inactive

$$$$
>  <MOLECULE>
CCOC(=O)c1nn(CC(O)c2ccccc2)c(NC(=O)Nc2cccc(F)c2)c1C (stereo not drawn)

>  <TESTED ON>
NCI-H322M lung

>  <CAT>
inactive

$$$$
